target: BaF3 cells expressing the target EGFR mutations (Homo sapiens, UniProt P00533, T790M/L858R, cells depend on it); construct: IC50, BAF3 EGFR L858R-T790M PURO POOL; other: BAF3 EGFR L858R-T790M PURO POOL cells, MTT; IC50, BAF3 EGFR L858R-T790M PURO POOL; other: BAF3 EGFR L858R-T790M PURO POOL cells; MTT; assay: Antiproliferative activity (MTT) against BaF3 cells expressing the target EGFR mutations; format: cell-based; conditions: BAF3 EGFR L858R-T790M PURO POOL cells, read-out: IC50, BAF3 EGFR L858R-T790M PURO POOL
Sequence (P00533 whole entry T790M/L858R): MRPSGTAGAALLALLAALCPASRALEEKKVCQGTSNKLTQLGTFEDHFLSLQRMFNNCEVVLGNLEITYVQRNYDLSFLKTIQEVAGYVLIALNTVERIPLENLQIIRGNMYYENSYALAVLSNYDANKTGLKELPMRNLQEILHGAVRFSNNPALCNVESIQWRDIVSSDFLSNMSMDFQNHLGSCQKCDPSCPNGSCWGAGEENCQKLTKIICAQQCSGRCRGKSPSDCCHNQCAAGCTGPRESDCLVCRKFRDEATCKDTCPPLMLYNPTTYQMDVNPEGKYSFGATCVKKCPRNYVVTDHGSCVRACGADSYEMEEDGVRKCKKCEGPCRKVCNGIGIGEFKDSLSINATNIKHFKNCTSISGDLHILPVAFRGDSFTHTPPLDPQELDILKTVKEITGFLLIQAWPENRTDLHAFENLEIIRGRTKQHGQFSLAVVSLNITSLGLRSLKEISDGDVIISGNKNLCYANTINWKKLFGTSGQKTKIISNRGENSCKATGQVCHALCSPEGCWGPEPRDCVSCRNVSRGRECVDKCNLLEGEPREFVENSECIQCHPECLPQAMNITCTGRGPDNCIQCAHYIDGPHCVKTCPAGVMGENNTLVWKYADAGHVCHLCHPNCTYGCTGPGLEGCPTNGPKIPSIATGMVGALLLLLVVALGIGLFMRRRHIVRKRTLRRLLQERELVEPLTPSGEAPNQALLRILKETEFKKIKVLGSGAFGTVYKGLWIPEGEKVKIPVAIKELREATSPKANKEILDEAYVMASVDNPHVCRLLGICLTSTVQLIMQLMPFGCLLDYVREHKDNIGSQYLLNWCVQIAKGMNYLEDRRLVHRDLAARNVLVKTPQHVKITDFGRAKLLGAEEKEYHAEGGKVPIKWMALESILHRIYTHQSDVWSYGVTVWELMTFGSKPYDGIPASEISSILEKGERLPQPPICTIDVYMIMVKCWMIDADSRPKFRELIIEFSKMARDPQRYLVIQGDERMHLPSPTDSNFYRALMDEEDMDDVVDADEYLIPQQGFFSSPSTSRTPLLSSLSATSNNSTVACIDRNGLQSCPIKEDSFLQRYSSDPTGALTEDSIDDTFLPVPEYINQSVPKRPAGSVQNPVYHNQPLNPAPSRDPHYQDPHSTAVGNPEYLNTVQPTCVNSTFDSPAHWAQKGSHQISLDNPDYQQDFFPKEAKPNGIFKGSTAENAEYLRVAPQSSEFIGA
Catalogue of GI50 values

| Molecule | GI50 |
| --- | --- |
| C=CC(=O)Nc1cc(Nc2ncc(Cl)c(Nc3ccccc3P(C)(C)=O)n2)c(OC)cc1N1CCC(N(CC)CC)C1 (centres unmarked) [Example 34] | < 50 nM |
| CC#CC(=O)Nc1cc(Nc2ncc(Cl)c(Nc3ccccc3P(C)(C)=O)n2)c(OC)cc1N1CCC(N2CCN(C)CC2)CC1 [Example 106] | < 50 nM |
| C=CC(=O)Nc1cc(Nc2ncc(Cl)c(Nc3ccccc3P(C)(C)=O)n2)c(OC)cc1N1CCC(N2CCCC2)C1 (centres unmarked) [Example 36] | < 50 nM |
| COCC1CCCN1CCC#CC(=O)Nc1cc(Nc2ncc(Cl)c(Nc3ccccc3P(C)(C)=O)n2)c(OC)cc1N1CCOCC1 (centres unmarked) [Example 122] | < 50 nM |
| C=CC(=O)Nc1cc(Nc2ncc(Cl)c(Nc3ccccc3P(C)(C)=O)n2)c(OC)cc1C#CCN(C)CCOC [Example 161] | < 50 nM |
| COc1ccc(NC(=O)C2=CCCCC2)cc1Nc1ncc(Cl)c(Nc2ccccc2P(C)(C)=O)n1 [Example 79] | ≥ 250 nM |
| COc1cc(F)c(NC(=O)CCl)cc1Nc1ncc(Cl)c(Nc2ccccc2P(C)(C)=O)n1 [Example 149] | < 50 nM |
| C=CC(=O)Nc1cc(Nc2ncc(Cl)c(Nc3ccccc3P(C)(C)=O)n2)c(OC)cc1N1CCC(N(C)C)CC1 [Example 23] | 101 to 250 nM |
| COc1ccc(NC(=O)/C=C\C(=O)NCCN(C)C)cc1Nc1ncc(Cl)c(Nc2ccccc2P(C)(C)=O)n1 [Example 64] | ≥ 250 nM |
| C=CC(=O)Nc1cc(Nc2ncc(Cl)c(Nc3ccccc3P(C)(C)=O)n2)c(OC)cc1OCc1ccncc1 [Example 11] | 101 to 250 nM |
| C=CC(=O)Nc1cc(Nc2ncc(Cl)c(Nc3ccccc3P(C)(C)=O)n2)c(OC)cc1C#CC(C)(C)N(CC)CC [Example 154] | < 50 nM |
| C=C(C)C(=O)Nc1cc(Nc2ncc(Cl)c(Nc3ccccc3P(C)(C)=O)n2)c(OC)cc1N1CC[C@@H](N(C)C)C1 (racemic) [Example 113] | < 50 nM |
| COCC#CC(=O)Nc1cc(Nc2ncc(Cl)c(Nc3ccccc3P(C)(C)=O)n2)c(OC)cc1N1CCOCC1 [Example 105] | < 50 nM |
| C=CC(=O)Nc1cc(Nc2ncc(Cl)c(Nc3ccccc3P(C)(C)=O)n2)c(OC)cc1N1CCC(O)C1 (centres unmarked) [Example 32] | 101 to 250 nM |
